System: HEL
MEASUREMENT_PROTOCOL: Cytotoxicity against human HEL cells assessed as reduction in cell viability measured after 3 days by beckman coulter counting method
Assay type: cell-based
ASSAY_CONTEXT: 72 h, time 3 day
Reported CC50 values for the following molecules.
VALUE_KIND: CC50

>>> result("Nc1nc(O)c2ncn(COC(CO)CO)c2n1 [GANCICLOVIR]")
"> 300 µM"
>>> result("CCCCCCCCCOc1ccc2c(c1)Nc1nc(=O)n(COCCO)cc1O2")
"> 100 µM"
>>> result("CCCCCCCCCCOc1ccc2c(c1)N(C)c1nc(=O)n([C@H]3C[C@H](O)[C@@H](CO)O3)cc1O2")
"> 100 µM"
>>> result("CCCCCCCCOc1ccc2c(c1)N(C)c1nc(=O)n([C@H]3C[C@H](O)[C@@H](CO)O3)cc1O2")
"> 100 µM"
>>> result("CN1c2ccccc2Oc2cn([C@H]3C[C@H](O)[C@@H](CO)O3)c(=O)nc21")
"> 100 µM"
>>> result("CCCCCCCCCCOc1ccc2c(c1)Nc1nc(=O)n([C@H]3C[C@H](O)[C@@H](CO)O3)cc1O2")
"50.3 µM"
>>> result("COc1ccc(C(OCCOCn2cc3c(nc2=O)Nc2ccccc2O3)(c2ccccc2)c2ccc(OC)cc2)cc1")
"> 100 µM"
>>> result("O=c1nc2c(cn1[C@H]1C=C[C@@H](O)C1)Oc1ccccc1N2")
"> 100 µM"
>>> result("Nc1ccn(C[C@@H](CO)OCP(=O)(O)O)c(=O)n1 [CIDOFOVIR]")
"> 300 µM"

###

Test system: Vero
MEASUREMENT_PROTOCOL: Cytotoxicity in African green monkey Vero cells assessed as reduction in cell viability measured after 5 days by resazurin dye based assay
ASSAY_CONTEXT: chlorocebus sabaeus, vero, 120 h; time 5 day
VALUE_KIND: CC50

>>> result("NCCOc1cccc2c1Nc1nc(=O)n([C@@H]3O[C@H](CO)[C@@H](O)[C@H]3O)cc1O2")
"2.92 µM"
>>> result("COc1ccc(C(OC[C@H]2O[C@@H](n3cc4c(nc3=O)Nc3ccccc3O4)[C@H](OC)[C@@H]2O)(c2ccccc2)c2ccc(OC)cc2)cc1")
"26.5 µM"
>>> result("O=c1nc2c(cn1COCCO)Oc1ccccc1N2")
"> 100 µM"
>>> result("CN1c2ccccc2Oc2cn([C@H]3C[C@H](O)[C@@H](CO)O3)c(=O)nc21")
"> 100 µM"
>>> result("COc1ccc(C(OC[C@H]2O[C@@H](n3cc4c(nc3=O)Nc3ccccc3O4)[C@H](O)[C@@H]2O)(c2ccccc2)c2ccc(OC)cc2)cc1")
"15.9 µM"
>>> result("CCCCCCCCCOc1ccc2c(c1)N(C)c1nc(=O)n([C@H]3C[C@H](O)[C@@H](CO)O3)cc1O2")
"> 100 µM"
>>> result("COc1ccc(C(OC[C@H]2O[C@@H](n3cc4c(nc3=O)Nc3c(OCCN)cccc3O4)C[C@@H]2O)(c2ccccc2)c2ccc(OC)cc2)cc1")
"> 100 µM"
>>> result("CCCCCCCCOc1ccc2c(c1)N(C)c1nc(=O)n([C@H]3C[C@H](O)[C@@H](CO)O3)cc1O2")
"> 100 µM"
